Biological target: human GPR17 receptor (Homo sapiens)
Sequence (Q13304 whole entry): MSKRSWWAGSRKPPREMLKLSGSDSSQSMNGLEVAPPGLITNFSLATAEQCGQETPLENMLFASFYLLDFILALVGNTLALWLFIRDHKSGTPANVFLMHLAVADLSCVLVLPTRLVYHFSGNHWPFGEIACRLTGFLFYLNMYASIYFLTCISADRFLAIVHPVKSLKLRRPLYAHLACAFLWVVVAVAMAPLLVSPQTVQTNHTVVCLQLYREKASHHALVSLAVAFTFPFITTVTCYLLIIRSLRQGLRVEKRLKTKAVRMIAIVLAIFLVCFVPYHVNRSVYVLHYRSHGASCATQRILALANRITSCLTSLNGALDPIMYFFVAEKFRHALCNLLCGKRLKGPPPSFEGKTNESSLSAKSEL
Experiment: Calcium mobilization functional assay (Fluo-8, FLIPR TETRA) in HEK-293 hGPR17 (Gα-q assay)
Settings: antagonism of MDL29,951 (~EC80) induced Ca2+ signal; cell line (HEK-293 hGPR17 or HEK-293 Suchi5 hGPR17) not given
Experimental: HEK-293 cells stably expressing the human GPR17 receptor (HEK-293 hGPR17) developed by Axxam (Bresso, Milan, Italy) were cultured at 37° C. in a humidified atmosphere of 5% CO2. Cells were grown in EMEM supplemented with FBS (10%), Penicillin/Streptomycin (1%), Ultraglutamine I (2 mM), puromycin (0.6 μg/mL), G418 (0.4 mg/mL), zeocin (50 μg/mL). […] Elevated intracellular calcium levels can then be measured with calcium-sensitive fluorescent dyes (e.g., Fluo 8-No Wash Dye). […]
pIC50: −log10 of the molar value.
quantity.name: pIC50

Solved entries:
structure_notation=N#Cc1ccc(NS(=O)(=O)c2c[nH]c(-c3ccc(Cl)cn3)c2)c(F)c1 quantity_name=pIC50 value="4.30 to 5.30"
structure_notation=N#Cc1cc(F)c(NS(=O)(=O)c2c[nH]cc2Cc2cccc(Cl)c2)cc1F quantity_name=pIC50 value="> 6.30"
structure_notation=COc1c(Cl)cccc1-c1cc(S(=O)(=O)Nc2ccc(C#N)cc2F)c[nH]1 quantity_name=pIC50 value="> 6.30"
structure_notation=O=S(=O)(Nc1ncc(OCC(F)F)cc1F)c1c[nH]cc1-c1cccc(F)c1 quantity_name=pIC50 value="4.30 to 5.30"
structure_notation=N#Cc1ccc(NS(=O)(=O)c2c[nH]c(-c3ccccc3)c2F)c(F)c1 quantity_name=pIC50 value="> 6.30"
structure_notation=O=S(=O)(Nc1cc(F)c(OC(F)F)cc1F)c1c[nH]c(-c2ccsn2)c1 quantity_name=pIC50 value="> 6.30"
structure_notation=Cc1csc(-c2cc(S(=O)(=O)Nc3cc(F)c(OC(F)F)cc3F)c[nH]2)c1 quantity_name=pIC50 value="> 6.30"
structure_notation=Cc1ccccc1-c1cc(S(=O)(=O)Nc2cc(F)c(F)cc2F)c[nH]1 quantity_name=pIC50 value="5.30 to 6.30"

// lookup pIC50 | system=human GPR17 receptor (Homo sapiens) | key= `COc1cc(C(F)(F)F)cnc1NS(=O)(=O)c1c[nH]c(-c2ccccc2F)c1`
5.30 to 6.30
